Property: inhibition; scope: individual compounds
- study system: Glycogen synthase kinase-3 alpha (Homo sapiens);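 note: values are mean inhibition of GSK3A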
- conditions: at 0.1 µM
Please give a number only; it is taken to be in %.

Below are worked cases with known answers.
Please give the measured inhibition for this compound: CCn1c(-c2nonc2N)nc2cnc(Oc3cccc(NC(=O)c4ccc(OCCN5CCOCC5)cc4)c3)cc21
13.9

Please give the measured inhibition for this compound: COc1cccc(-n2ncc3c(N/N=C/c4cccc(F)c4)ncnc32)c1
54.5

Further cases:
Please give the measured inhibition for this compound: CN1CCC(C(=O)Nc2n[nH]c3nnc(-c4ccccc4)cc23)CC1
79.5

Please give the measured inhibition for this compound: NS(=O)(=O)c1ccc(N/N=C2\C(=O)Nc3ccc(C(=O)NCCc4c[nH]cn4)cc32)cc1
50.7

Please give the measured inhibition for this compound: CCn1c(-c2nonc2N)nc2cncc(C(=O)N3CC[C@H](N)C3)c21
3.29

Please give the measured inhibition for this compound: Cn1cc(C=C2C(=O)Nc3cccnc32)c2ccccc21
4.33

Please give the measured inhibition for this compound: Nc1ncnc2occ(-c3ccc(NC(=O)Nc4cc(C(F)(F)F)cc(C(F)(F)F)c4)cc3)c12
1.22

Please give the measured inhibition for this compound: CS(=O)(=O)CCNCc1nc(-c2ccc3ncnc(Nc4ccc(F)c(Cl)c4)c3c2)cs1
1.3

Please give the measured inhibition for this compound: CN(C)c1cc2c(Nc3ccc4nc(Cc5ccccc5)[nH]c4c3)ncnc2cn1
2.41

Please give the measured inhibition for this compound: CC1=C(C(=O)Nc2ccc3[nH]ncc3c2)C(c2ccc3ccccc3c2)CC(=O)N1 (stereo not given)
2.64
